system: A2780; test: Anticancer activity against human A2780 cells assessed as inhibition of cell growth measured after 48 hrs by MTT assay; format: functional, cell-based; details: A2780, 48 h
readout-name: pIC50
Note on units: pIC50 is unitless, being -log10 of a concentration expressed in mol/L.

Problem: Report pIC50 for O=C1CCCC[C@H]1[C@H](c1ccccc1)C(F)[N+](=O)[O-] (some centres not stated) tested on A2780.
Solution: 4.05
